- System: db/db mice
- Experimental Details: Efficacy test for blood glucose and plasma lipid lowering (db/db mice)
- Assay type: in vivo
- Recorded Conditions: male db/db mice, oral, 10 mg/kg, day 14, vs vehicle
Marks after values point to notes of the source that are not given here.
Metric Name: Fatty Acid % max reduction d14

Please look up its Fatty Acid % max reduction d14: CCOC(Cc1ccc(OCCn2c(C(F)(F)C(F)(F)F)nc3ccccc32)cc1)C(=O)O (centres unmarked)
71** %

Please look up its Fatty Acid % max reduction d14: `CCO[C@@H](Cc1ccc(OCCn2c(C(F)(F)F)nc3ccccc32)cc1)C(=O)O`
60** %

Please look up its Fatty Acid % max reduction d14: CCOC(Cc1ccc(OCCn2c(C(F)(F)F)nc3ccccc32)cc1)C(=O)O (racemic)
72** %

Please look up its Fatty Acid % max reduction d14: CCOC(Cc1ccc(OCCn2c(C(F)(F)F)nc3cc(F)ccc32)cc1)C(=O)O (centres unmarked)
27** %

Please look up its Fatty Acid % max reduction d14: CCOC(Cc1ccc(OCCn2c(C(F)(F)F)nc3cc(C(F)(F)F)ccc32)cc1)C(=O)O (centres unmarked)
76** %

###

- Target Or Test System: hPPAR-α (Homo sapiens, UniProt Q07869)
- Sequence (Q07869 239-466 limits assumed): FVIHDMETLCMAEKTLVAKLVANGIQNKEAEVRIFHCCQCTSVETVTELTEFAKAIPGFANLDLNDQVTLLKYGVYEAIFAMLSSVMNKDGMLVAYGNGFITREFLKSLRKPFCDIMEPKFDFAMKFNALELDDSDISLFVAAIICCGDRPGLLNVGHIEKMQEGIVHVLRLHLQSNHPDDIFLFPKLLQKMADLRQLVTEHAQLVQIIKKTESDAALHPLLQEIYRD
- Experimental Details: In vitro hPPAR-α transactivation (GAL4 fusion, SPRAT cells, luciferase)
- Recorded Conditions: 6 hours, read-out: PPAR-α EC50
Metric Name: pEC50
The quantity pEC50 is defined as the negative base-10 logarithm of the molar concentration.

Please look up its pEC50: CCOC(Cc1ccc(OCCn2c(C(F)(F)F)nc3ccccc32)cc1)C(=O)O (racemic) [Example 1]
4.76

Entry source: patent US7456293B2
